assay: HIV cell culture assay: MT-2 cells and 293T cells were obtained from the NIH AIDS Research and Reference Reagent Program. MT-2 cells were propagated in RPMI 1640 media supplemented with 10% heat inactivated fetal bovine serum, 100 μg/mL penicillin G and up to 100 units/mL streptomycin. The 293T cells were propagated in DMEM media supplemented with 10% heat inactivated fetal bovine serum (FBS), 100 units/mL penicillin G and 100 μg/mL streptomycin. The proviral DNA clone of NL4-3 was obtained from the NIH AIDS Research and Reference Reagent Program. A recombinant NL4-3 virus, in which a section of the nef gene from NL4-3 was replaced with the Renilla luciferase gene, was used as a reference virus. In addition, residue Gag P373 was converted to P373S. Briefly, the recombinant virus was prepared by transfection of the altered proviral clone of NL4-3. Transfections were performed in 293T cells using LipofectAMINE PLUS from Invitrogen (Carlsbad, Calif.), according to manufacturer's instruction. The virus was titered in MT-2 cells using luciferase enzyme activity as a marker. Luciferase was quantitated using the Dual Luciferase kit from Promega (Madison, Wis.), with modifications to the manufacturer's protocol. The diluted Passive Lysis solution was pre-mixed with the re-suspended Luciferase Assay Reagent and the re-suspended Stop & Glo Substrate (2:1:1 ratio). Fifty (50) μL of the mixture was added to each aspirated well on assay plates and luciferase activity was measured immediately on a Wallac TriLux (Perkin-Elmer). Antiviral activities of inhibitors toward the recombinant virus were quantified by measuring luciferase activity in cells infected for 4-5 days with NLRluc recombinants in the presence serial dilutions of the inhibitor.; format: cell-based
pEC50: −log10 of the molar value.
I'd be grateful if you could share measured pEC50 for these entries.

Please review the following examples before continuing.
{"columns": ["compound-smiles", "experimental-value"],
 "data": [
  ["C=C(C)[C@@H]1CC[C@]2(c3nc[nH]n3)CC[C@]3(C)[C@H](CC[C@@H]4[C@@]5(C)CC=C(c6ccc(C(=O)O)cc6)C(C)(C)[C@@H]5CC[C@]43C)[C@@H]12", "< 7.00"],
  ["C=C(C)[C@@H]1CC[C@]2(c3nnc(CN(C)C)o3)CC[C@]3(C)[C@H](CC[C@@H]4[C@@]5(C)CC=C(c6ccc(C(=O)O)cc6)C(C)(C)[C@@H]5CC[C@]43C)[C@@H]12", "< 7.00"],
  ["C=C(C)[C@@H]1CC[C@]2(c3ncn(CCN4CCS(=O)(=O)CC4)n3)CC[C@]3(C)[C@H](CC[C@@H]4[C@@]5(C)CC=C(c6ccc(C(=O)O)cc6)C(C)(C)[C@@H]5CC[C@]43C)[C@@H]12", "< 7.00"]
]}

Hi! Can you tell me pEC50 for each of these molecules?
1. C=C(C)[C@@H]1CC[C@]2(c3nnco3)CC[C@]3(C)[C@H](CC[C@@H]4[C@@]5(C)CC=C(c6ccc(C(=O)O)cc6)C(C)(C)[C@@H]5CC[C@]43C)[C@@H]12
2. C=C(C)[C@@H]1CC[C@]2(C#Cc3ccsc3-c3nnn[nH]3)CC[C@]3(C)[C@H](CC[C@@H]4[C@@]5(C)CC=C(c6ccc(C(=O)O)cc6)C(C)(C)[C@@H]5CC[C@]43C)[C@@H]12
3. C=C(C)[C@@H]1CC[C@]2(c3ncnn3C)CC[C@]3(C)[C@H](CC[C@@H]4[C@@]5(C)CC=C(c6ccc(C(=O)O)cc6)C(C)(C)[C@@H]5CC[C@]43C)[C@@H]12

[reply]
1: < 7.00; 2: > 7.00; 3: < 7.00
